assayedTarget: T1, HLA-A*0201 (human)
T1 construct: MHC class I molecule on cells; detected by flow cytometry with anti-HLA-A2 antibody BB7.2; also called HLA-A2; A2.1
experimentalProtocol: off-kinetics assay on acid-stripped HLA-A*0201 LCL pulsed with peptide and b2 microglobulin, flow cytometry of surface HLA-A2 (stable if MFI at least 1.5-fold over unpulsed cells)
I'd appreciate it if you could supply Relative Off kinetics values for the items below.
Output spec: scalar in h, unitless text.

Asked: # get_value(readout='Relative Off kinetics', item= PLFQVPEPV (One of the four 'dominant' AFP peptides; synthesized by standard techniques) [hAFP137-145, residues 137-145 of SEQ ID NO:2] )
Given back: 4

Asked: # get_value(readout='Relative Off kinetics', item= GVALQTMKQ (One of the four 'dominant' AFP peptides; synthesized by standard techniques) [hAFP542-550, residues 542-550 of SEQ ID NO:2] )
Given back: 6

Asked: # get_value(readout='Relative Off kinetics', item= GLSPNLNRFL (One of the four 'dominant' AFP peptides; synthesized by standard techniques) [hAFP325-334, residues 325-334 of SEQ ID NO:2] )
Given back: 2

Asked: # get_value(readout='Relative Off kinetics', item= FMNKFIYEI (One of the four 'dominant' AFP peptides; synthesized by standard techniques) [hAFP158-166, residues 158-166 of SEQ ID NO:2] )
Given back: 4
